Assay: soluble fraction after stress (log2 fold change); higher = more stays soluble; pooled small domains, quantitative proteomics
Conditions: stress: pH 4
// label = True if soluble fraction (log2) is not less than -0.3, otherwise False

Take a look at these entries with their results.
- MONOMER_SEQUENCE: "HMLNLNEAEKSIYVLIKKNESNNLNKVKEDSNLSNKAWDKGIKNLVKNNLVKVVKSNEGLFIQLV"
  CATEGORY: "True"
- MONOMER_SEQUENCE: "HMPNGEAYQRFTYENDILEGRFEEWDSLGTDIVKGDYTAGVRHKKWLYYDSEGRRDKFVFLDMDSI"
  CATEGORY: "False"
- MONOMER_SEQUENCE: "HMINAQETEIYRFLIEKANRLYSMVLGLKREELMTATRQFEEEVKHSSIHHLPKIYQAFSSYLELLERG"
  CATEGORY: "True"
- MONOMER_SEQUENCE: "HMKRITKKQLSQQLEQFFSSQPGKKLTLKDIFRALHLDTHPLKMLAMDIMEEMAWDDFITKKGENAYQLNT"
  CATEGORY: "False"

query: Could you verify whether the entry HMVELPDLIGKSKRLAFTQLEISGLKIGKIIYEPDLAKDAVLKILYNGKIVKAGEQLPRFATVDLVLG shows soluble fraction (log2) of no less than -0.3?
result: True

query: Could you verify whether the entry HMYAMTAEDWIVSGNRKYINDDLQGAIADYTKAIEIDPNYAAIYLVRGKAKYELKNYQGAIEDYTKAIE shows soluble fraction (log2) of no less than -0.3?
result: False

query: Could you verify whether the entry HMGAYPENSLLKERGQSAVYLIQENRKRLFFNAEAFLINGYNWKDIQVVDDLSKILTGKVIYAK shows soluble fraction (log2) of no less than -0.3?
result: False

query: Could you verify whether the entry HMSTEPLALVGKTGIAATVLRPSGRIEVDDKYYDAVSLGAFIEKGEMVNIVKYENLQLYVAKL shows soluble fraction (log2) of no less than -0.3?
result: True

* * *

Assay: soluble fraction after stress (log2 fold change); higher = more stays soluble; pooled small domains, quantitative proteomics
Conditions: stress: pH 4
Measured soluble fraction (log2), listed per entry.

query: Query: soluble fraction (log2); subject: HMGSKDLPFSTFMSEIDKGNITSVDIRGNEIQGTFANGTKFRTYSPNYPNLVEKLNGKGVSITAGPV
result: 0.211

query: Query: soluble fraction (log2); subject: HMPPQPATQNTKAQVMQLAREKELMAGEGRGANVEALEKFANEHGISLRGMTEEQAEQLVKLLMEYTP
result: 0.19

query: Query: soluble fraction (log2); subject: HMGLYPYSGTPADNQEANERRIFDIYSTHLERIFSDFSGATLRTKRLVLRLMQELVHSDPVRMAGILDEL
result: 0.1

query: Query: soluble fraction (log2); subject: HMSESLLTAAGFKTIAATTPEQKRHLEWLHPDQVTAVQLTGQHYYVYPDVAKSQLFVGTPKEYQAYLALRT
result: 0.00516

query: Query: soluble fraction (log2); subject: HMIDQNEDLLSGYIDEVLSQNPDKVNEYLKGKSGLIGFFMGQIKQKSATALDAALLKSQLETALEKLRIK
result: -0.00948

query: Query: soluble fraction (log2); subject: HMTGDNQTIGGGGFHHVAIRAHDFDASVKFYGETLGFREKIAWGEGDKRAIMMDTGDGNYIEIF
result: -0.0678

query: Query: soluble fraction (log2); subject: HMGDWITGTVTRIADNGWGTFQPENAHNTVSIPPKMVADNQLKEADSIKIIAEPSPDGTKTFIKAISRE
result: 0.214

query: Query: soluble fraction (log2); subject: HMYHADLIGLEARSTAGDKLGEVNAVYNFGAGDLIEIKMTDGNLEMLPFTRQYVPTVSIKDGFIIVQM
result: -1.08

* * *

Assay: soluble fraction after stress (log2 fold change); higher = more stays soluble; pooled small domains, quantitative proteomics
Details: stress: pH 4
EXPERIMENTAL_ENDPOINT: soluble fraction (log2)
# answer = number (no unit)

- MONOMER_SEQUENCE: "HMKPDMAVIVGSRTLTFATTTDRQILVLRTDGTMVNRLSMKAGETRTITLPAGVYIVNGKKIIV"
  EXPERIMENTAL_ENDPOINT: "soluble fraction (log2)"
  OBSERVED_VALUE: 0.22

query: Query: soluble fraction (log2); subject: HMGDLTVPDLSGLTVDQAKQRLKDMGLVLGKITTQEDSSKPDGVIISQSPSADGKINKGQLVDVVVNKLS
result: 0.206

query: Query: soluble fraction (log2); subject: HMTRQKEAILALLTDSRGEALSASELLARLTRSGSSIGRTTVYRLLSQLVDDGVVRAWRDASRGITLYELS
result: -0.44

* * *

Assay: soluble fraction after stress (log2 fold change); higher = more stays soluble; pooled small domains, quantitative proteomics
Details: stress: pH 4
EXPERIMENTAL_ENDPOINT: soluble fraction (log2)
# answer = number (no unit)

Solved entries (count: 10):
- MONOMER_SEQUENCE: "HMRNNKLRRANKLKTEFENLPHIGKKRAHVLLKAFGSTENLKMTTAQALSEAAKISLKQAEEVLEAVRG"
  soluble fraction (log2): -0.0912
- MONOMER_SEQUENCE: "HMKEVKAPMPGMVLRVEVAPGQEVQEGDPLLVLEAMKMENNLKSPASGTIKSVHVEAGKAVEKGAVLVVF"
  soluble fraction (log2): -0.257
- MONOMER_SEQUENCE: "HMDPEEETLKNMQRMLQDSGPLKKTEFSLLAKSLGIAEKKARKLIDRGRGRFWTVESGEQKNTQLVTPIQ"
  soluble fraction (log2): -0.261
- MONOMER_SEQUENCE: "HMIGGEDEILKVVLEVLEEKPEAIEQYKNGRTNIVDFLVGQVMKKTRGQANPATTREFMIREIEK"
  soluble fraction (log2): -0.999
- MONOMER_SEQUENCE: "HMSKSVEQRRQQIVAWVKEHGQSQVEDLAVRFATSEVTIRKDLAALSQQGLLIRQFGGAVPVPA"
  soluble fraction (log2): 0.119
- MONOMER_SEQUENCE: "HMSQAVTMLKAGRLLANSKGTGAAVRDLEPGMLLYPTGQKDGTMWEVEDEMGNKGWVNSTSMQLA"
  soluble fraction (log2): 0.395
- MONOMER_SEQUENCE: "HMLERPLKLKSHYVSAINEKVAVQFQAGEERKSIMGTLTEVNQDTIVIDDRGSVTEIPFKSIIRAKTVF"
  soluble fraction (log2): -0.163
- MONOMER_SEQUENCE: "HMTKIAFPQMLNKYRLQKNLTMEQLAEEVGKTKSTISKWEAGTRSPKIYEIEEIAKYFGVEPQTMMF"
  soluble fraction (log2): -0.548
- MONOMER_SEQUENCE: "HMGTVFTDIMTDIASGKFPNVFPDSLEAQIQKNVTMAPDKLSATLQYGDKSVILPTTKGKEAAEAAVKAA"
  soluble fraction (log2): -0.648
- MONOMER_SEQUENCE: "HMIALKNLREEKRMTQAELSKDLEISPSAIGMYEQGRRVPDVSTLKKISAYFNVSIDYLLGNSTSKDI"
  soluble fraction (log2): -0.0244

query: Query: soluble fraction (log2); subject: HMKPSKTDEAEYWLMERLEEGPQPAGDLIRIGEEFGYTPKILRDAGERFNMERYKDGLDHWMWKLPN
result: 0.349

query: Query: soluble fraction (log2); subject: HMSISEADAKKIALEKVPGATDSNLRIKTDYDDGIMKYEVKIVYNEMKYEFDIDAATGTILEWESESVY
result: 0.277

query: Query: soluble fraction (log2); subject: HMKTGIGIVEANGGLRLRSQASTSSDVLSTAHNGDNVVVIRQVGNWYLVNYNLKIGYMHSDYITFKE
result: -1.3

query: Query: soluble fraction (log2); subject: HMIAASPVGGIDRVLELLDARGQRVAWIEASGTEGGQRLRLGWIDAQGAERHGAWVPWSADDLLLYA
result: -0.547

query: Query: soluble fraction (log2); subject: HMARKFQKDTGYLNKKERTWLLDFFPSLKKYLYTGAYIRSIIVVESNVTYTDKELPSNYTFTYKFA
result: 0.176

query: Query: soluble fraction (log2); subject: HMLNSISIKTNKKIDFLEKNEHLVNFVYEKETMEHIYNLSYENKKDLQELQNKLSDIEGIIKINTDL
result: -2.18

query: Query: soluble fraction (log2); subject: HMEKGNEEALEQAREAILAVQSGEKYVDLDPANAAIRRKQHALAQASDLVSQSYGKDPNRYVRIFR
result: 0.367

* * *

Measured soluble fraction (log2), listed per entry.
Test: soluble fraction after stress (log2 fold change); higher = more stays soluble; pooled small domains, quantitative proteomics
Conditions: stress: pH 4
# answer = number (no unit)

- MONOMER_SEQUENCE: "HMEKLIRIKRLIKQLNEYRDSYYNEARPVVSDAAYDKLFDELSELEKETGVVYANSPTQTVG"
  soluble fraction (log2): -0.457
- MONOMER_SEQUENCE: "HMEREQNIAQGREVVQRELKRLGLTDVFTVEDIGRALKFDDIDEFLSKVGFGDIQTAKITGAIALMQQALR"
  soluble fraction (log2): -0.84
- MONOMER_SEQUENCE: "HMAATISPEIQAEAEKAAALGVESIKNFMASLKEKNPEQHALFSDSEKRRLYAIARKADLNTTQQG"
  soluble fraction (log2): 0.0597

query: Query: soluble fraction (log2); subject: HMQISDDGFILKIINEVVAENPKSISDYISGKEAAVGFLVGQIMKKTRGKANPKLVNEMLITELAKLKN
result: -0.393

query: Query: soluble fraction (log2); subject: HMGDDVRKNILDVLSKFERVDITDLDSLELVRFYLEIEDIFDIEIKENDFYRLKSVDSIVDYIRNKSFF
result: -1.64

query: Query: soluble fraction (log2); subject: HMEQPAPSTTVDILGGGRAALVTANRELGLALADDEIDYLTDSFTQLGRNPVDVELMMFAQA
result: -0.224

query: Query: soluble fraction (log2); subject: HMLPNIKSEMEILGDNAKARLEAAELWSKKYLSNEAYDTMSKLATTADGVKAIEEIMNITKS
result: -0.274

query: Query: soluble fraction (log2); subject: HMSDSLVLTGVAYVDGKPVVTLFDKVKKESLVVTDQPNLKGWTLVEATQSSDIKRATAKVNIGGEPVSIRY
result: -0.162
